Source of measurements: patent US9676704B2

Test system: Yellow Fever Mosquito (YFM)
Assay type: in vivo, Aedes aegypti
Details: 15 μL of diluted 4000 ppm master solution per well, about 1 day-old larvae, 3 days
experimentalEndpoint: YFM % Control (or Mortality) rating

1) C[C@H](NC(=O)CC#N)NC(=O)c1ccc(/C=C/C(c2cc(Cl)c(Cl)c(Cl)c2)C(F)(F)F)cc1C(F)(F)F (stereo partly drawn) [Compound F11]: A (80-100)
2) Cc1cc(/C=C/C(c2cc(Cl)c(F)c(Cl)c2)C(F)(F)F)ccc1C(=O)N[C@H](C)NC(=O)CCC(F)(F)F (stereo partly drawn) [Compound P13]: A (80-100)
3) C[C@H](NC(=O)CCCC(C)(C)C)NC(=O)c1ccc(/C=C/C(c2cc(Cl)c(Cl)c(Cl)c2)C(F)(F)F)cc1C(F)(F)F (stereo partly drawn) [Compound F18]: A (80-100)
4) CN(CCNC(=O)c1ccc(/C=C/C(c2cc(Cl)c(Cl)c(Cl)c2)C(F)(F)F)cc1C(F)(F)F)C(=O)CC(F)(F)F (stereo not drawn) [Compound F20]: A (80-100)

====

Test system: Yellow Fever Mosquito (YFM)
Assay type: in vivo, Aedes aegypti
Details: 15 μL of diluted 4000 ppm master solution per well, about 1 day-old larvae, 3 days
experimentalEndpoint: YFM % Control (or Mortality) rating

1) C[C@H](NC(=O)CCC#N)NC(=O)c1ccc(/C=C/C(c2cc(Cl)c(Cl)c(Cl)c2)C(F)(F)F)cc1C(F)(F)F (stereo partly drawn): A (80-100)
2) Cc1cc(/C=C/C(c2cc(Br)cc(Br)c2)C(F)(F)F)ccc1C(=O)N[C@H](C)NC(=O)CC(F)(F)F (stereo partly drawn): A (80-100)
3) CN(NC(=O)c1ccc(/C=C/C(c2cc(Cl)c(Cl)c(Cl)c2)C(F)(F)F)cc1C(F)(F)F)C(=O)OC(C)(C)C (stereo not drawn): A (80-100)
4) CC(C)=CC(=O)N[C@@H](C)NC(=O)c1ccc(/C=C/C(c2cc(Cl)c(Cl)c(Cl)c2)C(F)(F)F)cc1C(F)(F)F (stereo partly drawn): A (80-100)
5) CCCCCC(=O)N[C@@H](C)NC(=O)c1ccc(/C=C/C(c2cc(Cl)c(Cl)c(Cl)c2)C(F)(F)F)cc1C(F)(F)F (stereo partly drawn): A (80-100)

====

System: Cabbage Looper (CL)
Experiment: Bioassays on CL, 128-well diet tray assay
Type: in vivo
Conditions: Trichoplusia ni; 5 μg/cm^2; read-out: CL Percent control (or mortality)
Experimental: Bioassays on CL were conducted using a 128-well diet tray assay. One to five second instar CL larvae were placed in each well (3 mL) of the diet tray that had been previously filled with 1 mL of artificial diet to which 50 μg/cm^2 of the test compound (dissolved in 50 μL of 90:10 acetone-water mixture) had been applied (to each of eight wells) and then allowed to dry. […] Percent mortality was recorded for the larvae in each well; activity in the eight wells was then averaged. […]
# maps each entry to its mortality at 5 µg/cm2
experimentalEndpoint: mortality at 5 µg/cm2 (%)

1. C[C@H](NC(=O)CC(F)(F)F)NC(=O)c1ccc(/C=C/C(c2cc(Cl)c(Cl)c(Cl)c2)C(F)(F)F)cc1C(F)(F)F (some centres unmarked) [Compound F2]: 100
2. Cc1cc(/C=C/C(c2cc(Cl)c(Cl)c(Cl)c2)C(F)(F)F)ccc1C(=O)N[C@H](C)NC(=O)CC(F)(F)F (some centres unmarked) [Compound P22]: 100
3. C[C@H](NC(=O)CCC(F)(F)F)NC(=O)c1ccc(/C=C/C(c2cc(Cl)c(Cl)c(Cl)c2)C(F)(F)F)cc1 (some centres unmarked) [FC1]: 71
4. C[C@H](NC(=O)CC(F)(F)F)NC(=O)c1ccc(/C=C/C(c2cc(Cl)c(Cl)c(Cl)c2)C(F)(F)F)cc1 (some centres unmarked) [FC2]: 0
5. C[C@H](NC(=O)CCC(F)(F)F)NC(=O)c1ccc(/C=C/C(c2cc(Cl)c(Cl)c(Cl)c2)C(F)(F)F)cc1C(F)(F)F (some centres unmarked) [Compound F1]: 100
6. Cc1cc(/C=C/C(c2cc(Cl)c(Cl)c(Cl)c2)C(F)(F)F)ccc1C(=O)N[C@H](C)NC(=O)CCC(F)(F)F (some centres unmarked) [Compound P25]: 100
7. C[C@H](NC(=O)CCC(F)(F)F)NC(=O)c1ccc(/C=C/C(c2cc(Cl)c(Cl)c(Cl)c2)C(F)(F)F)cc1Br (some centres unmarked) [Compound P27]: 100
8. C[C@H](NC(=O)CC(F)(F)F)NC(=O)c1ccc(/C=C/C(c2cc(Cl)c(Cl)c(Cl)c2)C(F)(F)F)cc1Br (some centres unmarked) [Compound P24]: 100
